experimental system: GIPR (CHO-K1-hGIPR cells) (Homo sapiens, UniProt P48546)
Construct: host or cells: CHO-K1
Sequence (P48546 22-466): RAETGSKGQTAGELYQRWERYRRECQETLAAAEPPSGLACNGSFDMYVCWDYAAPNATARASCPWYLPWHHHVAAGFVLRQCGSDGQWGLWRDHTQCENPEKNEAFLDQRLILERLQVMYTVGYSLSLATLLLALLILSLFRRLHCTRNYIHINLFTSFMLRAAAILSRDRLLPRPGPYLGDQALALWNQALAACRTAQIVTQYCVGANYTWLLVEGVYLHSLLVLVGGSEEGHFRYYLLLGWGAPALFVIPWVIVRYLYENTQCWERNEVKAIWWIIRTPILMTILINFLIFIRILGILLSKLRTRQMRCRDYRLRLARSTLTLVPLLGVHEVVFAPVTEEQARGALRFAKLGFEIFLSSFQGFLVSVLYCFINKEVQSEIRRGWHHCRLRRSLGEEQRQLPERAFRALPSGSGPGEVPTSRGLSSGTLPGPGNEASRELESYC
test details: FACS binding assay
condition notes: competition with 20 nM GIP-057, 4° C., 1 hour, read-out: pIC50 Category (converted)
*1 amine or outer side, *2 acyl side, *3 side chain or, on linkers, in order; H or OH if unused. Where a SMILES comes first, the peptide text is derived from it. Bridges are numbered along the chain shown (N, C = ends). [ ]: non-standard residue; d: D form. Trp(5-Cl) = N[C@@H](Cc1c[nH]c2ccc(Cl)cc12)C(=O)O; Pyridine(2,6-diCH2) = c1cc(C[*:1])nc(C[*:2])c1; Hyp = O=C(O)[C@@H]1C[C@@H](O)CN1; pS = N[C@@H](COP(=O)(O)O)C(=O)O; Thp = NC1(C(=O)O)CCOCC1
property: IC50

Query :: May I ask what IC50 has been recorded for CC[C@H](C)[C@@H]1NC(=O)[C@H](CC(C)C)NC(=O)C2(CCOCC2)NC(=O)[C@@H](NC(=O)[C@@H](CC(C)C)NC(=O)[C@H](CCC(=O)O)NC(=O)[C@@H]2C[C@@H](O)CN2C(=O)[C@H](Cc2c[nH]c3ccc(Cl)cc23)NC(=O)[C@H](Cc2c[nH]c3ccccc23)NC(=O)[C@H](COP(=O)(O)O)NC(C)=O)CSCc2cccc(n2)CSC[C@@H](C(N)=O)NC1=O [GIP-207] (Ac-[pS]W[Trp(5-Cl)][Hyp]E[dL]C[Thp]LIC-NH2; linker 7-11 via Pyridine(2,6-diCH2)) ?
Result :: < 10 nM

FYI, the data here is from patent US20250296971A1.
